Tested on: HIV-1 48V54V82A
protocol-description: microbe, parasite or virus in culture
Assay type: cell-based
assay-setup: Human immunodeficiency virus 1, read-out: Cell-based assay (MT-4) EC50/nM 48V54V82A
I'd be grateful if you could share measured EC50 for these entries.
Just the number please, in nM, no unit attached.

Challenge: Query: EC50; subject: CCOP(=O)(COc1ccc(CC2C(O)C(O)C(Cc3ccccc3)N(Cc3ccccc3)C(=O)N2Cc2ccccc2)cc1)OCC (stereo not drawn)
Response given: 1440

Challenge: Entry O=C1N(Cc2ccccc2)[C@H](Cc2ccccc2)[C@H](O)[C@@H](O)[C@@H](Cc2ccccc2)N1Cc1ccc2[nH]ncc2c1 [reference compound] please
Response given: 705

Challenge: Entry CCOP(=O)(COc1ccc(CC2C(O)C(O)C(Cc3ccc(O)cc3)N(Cc3ccc(O)cc3)C(=O)N2Cc2ccc(O)cc2)cc1)OCC (stereo not drawn) please
Response given: 986

====

Tested on: MT-2 cells
recorded-metric: CC50 (µM)
Just the number please, in µM, no unit attached.

Challenge: Query: CC50; subject: CCOP(=O)(OCC)c1ccc(CC(NC(=O)OC2COC3OCCC23)C(O)CN(CC(C)C)S(=O)(=O)c2ccc(OC)cc2)cc1 (centres unmarked)
Response given: 70

====

target-entity: recombinant HIV-1 protease (Human immunodeficiency virus type 1 group M subtype B)
Construct: Enzyme: recombinant HIV-1 protease expressed in E.Coli; purchased Bachem California, Inc. H-9040; host or cells: E. coli
protocol-description: biochemical
assay-setup: Ki, class symbols, Table 10
I'd be grateful if you could share measured Ki for these entries.

Challenge: Report Ki for CC(C)CN(CC(O)C(Cc1ccc(OCP(=O)(NC(C)C(=O)OC(C)C)Oc2ccccc2)cc1)NC(=O)OC1CCOC1)S(=O)(=O)c1ccc(N)cc1 (stereo not drawn) [drawing 697 R1=OPh R2=Ala-iPr] tested on recombinant HIV-1 protease (Human immunodeficiency virus type 1 group M subtype B).
Response given: 0.1 to 1 nM

Challenge: Entry CCOP(=O)(COc1ccc(CC(NC(=O)OC2COC3OCCC23)C(O)CN(CC(C)C)S(=O)(=O)c2ccc(OC)cc2)cc1)Oc1ccccc1 (stereo not drawn) [drawing 608 R1=OEt R2=OPh] please
Response given: < 0.01 nM

Challenge: Entry COc1ccc(S(=O)(=O)N(CC(C)C)CC(O)C(Cc2ccc(OCP(=O)(OC)Oc3ccccc3)cc2)NC(=O)OC2COC3OCCC23)cc1 (stereo not drawn) [drawing 608 R1=OMe R2=OPh] please
Response given: 0.01 to 0.1 nM

====

Tested on: wild-type HIV-1 strain IIIB
protocol-description: microbe, parasite or virus in culture
Format: cell-based
Set-up: scale not given here
recorded-metric: EC50 (nM)

Reference set (4 entries):
- molecule: "CC(C)CN(CC(O)C(Cc1ccc(O)cc1)NC(=O)OC1COC2OCCC12)S(=O)(=O)c1cccc(N)c1 (centres unmarked) [OH, m-NH2]"
  target-entity: "wild-type HIV-1 strain IIIB"
  value-observed: "+ +"
- molecule: "CCOC(=O)C(C)OP(=O)(Cc1ccc2c(c1)CCN(C[C@H](NC(=O)O[C@H]1CO[C@H]3OCC[C@H]31)[C@H](O)CN(CC(C)C)S(=O)(=O)c1ccc(OC)cc1)C2)Oc1ccccc1 (some centres unmarked)"
  target-entity: "wild-type HIV-1 strain IIIB"
  value-observed: "+ +"
- molecule: "COc1ccc(S(=O)(=O)N(CC(C)C)CC(O)C(Cc2ccc(NCP(=O)(O)O)cc2)NC(=O)OC2COC3OCCC23)cc1 (centres unmarked)"
  target-entity: "wild-type HIV-1 strain IIIB"
  value-observed: "+ +"
- molecule: "COc1ccc(S(=O)(=O)N(CC(C)C)CC(O)C(CC2=CCN(CCP(=O)(OCc3ccccc3)OCc3ccccc3)CC2)NC(=O)OC2COC3OCCC23)cc1 (centres unmarked) [drawing 673]"
  target-entity: "wild-type HIV-1 strain IIIB"
  value-observed: "+ +"

# input for lookup
Challenge: Query: EC50 (nM); subject: CCOC(=O)C(C)OP(=O)(CN1CC=C(CC(NC(=O)OC2COC3OCCC23)C(O)CN(CC(C)C)S(=O)(=O)c2ccc(OC)cc2)CC1)Oc1ccccc1 (centres unmarked)
Response given: + + +

The measurements presented in this section are drawn from patent US20040121316A1.
